Catalogue of compounds with associated pIC50
- TARGET OR SYSTEM: PASK (Invitrogen) (Homo sapiens, UniProt Q96RG2)
- Sequence (Q96RG2 999-1251 limits assumed): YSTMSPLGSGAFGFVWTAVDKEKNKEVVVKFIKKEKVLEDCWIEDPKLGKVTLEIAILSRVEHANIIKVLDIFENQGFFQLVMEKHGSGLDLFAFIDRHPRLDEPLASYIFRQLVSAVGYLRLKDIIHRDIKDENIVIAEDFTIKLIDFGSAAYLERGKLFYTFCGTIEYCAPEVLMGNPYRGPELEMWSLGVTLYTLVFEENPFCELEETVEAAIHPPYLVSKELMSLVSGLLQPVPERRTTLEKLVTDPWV
pIC50: −log10 of the molar value.

# example entries with known answers
[[record]]
smi = "CN(c1nc2cc(C(=O)O)ccc2nc1-c1cc2cc(F)ccc2o1)C1CC1"
target_or_system = "PASK (Invitrogen) (Homo sapiens, UniProt Q96RG2)"
recorded_metric = "pIC50"
obs_value = "> 5.00"

[[record]]
smi = "CCN(CC)c1nc2cc(C(=O)O)ccc2nc1-c1ccc2[nH]ccc2c1"
target_or_system = "PASK (Invitrogen) (Homo sapiens, UniProt Q96RG2)"
recorded_metric = "pIC50"
obs_value = "> 5.00"

[[record]]
smi = "C[C@H]1CCCN1c1nc2cc(C(=O)O)ccc2nc1-c1cc2ccc(F)cc2o1"
target_or_system = "PASK (Invitrogen) (Homo sapiens, UniProt Q96RG2)"
recorded_metric = "pIC50"
obs_value = "> 5.00"


# value of pIC50, PASK (Invitrogen) (Homo sapiens, UniProt Q96RG2), item CC[C@H](C)N(C)c1nc2cc(C(=O)O)ccc2nc1-c1cc2cc(F)ccc2o1 = > 5.00

---

Listed below: Cl (clearance) values for each entry.
- PROCEDURE TEXT: In vivo pharmacokinetics in the Sprague Dawley rat
- EXPERIMENTAL CONTEXT: intravenous via tail vein, 3 mg/kg (1 mg/kg for Example 105)
State the answer as a number, implicitly in mL/min/kg.

Solved cases (3 shown):
[[record]]
smi = "C[C@H]1COCCN1c1nc2cc(C(=O)O)ccc2nc1-c1ccc(F)cc1"
recorded_metric = "Cl (clearance)"
obs_value = 0.712

[[record]]
smi = "CC(C)N(C)c1nc2cc(C(=O)O)ccc2nc1-c1cc2cc(F)ccc2o1"
recorded_metric = "Cl (clearance)"
obs_value = 1.33

[[record]]
smi = "CN(c1nc2cc(C(=O)O)ccc2nc1-c1cc2ccccc2o1)C1CC1"
recorded_metric = "Cl (clearance)"
obs_value = 1.4


Now look at this entry.
// Cl (clearance) lookup, compound = C[C@H]1CCCN1c1nc2cc(C(=O)O)ccc2nc1-c1cc2ccccc2o1 , result: 1.72

---

Measured bioavailability of individual entries
- PROCEDURE TEXT: In vivo pharmacokinetics in the Sprague Dawley rat
- EXPERIMENTAL CONTEXT: blood, po, 10 mg/kg, summary of Table 3

[[record]]
compound = "C[C@H]1CCCN1c1nc2cc(C(=O)O)ccc2nc1-c1cc2ccccc2o1 [Example 14]"
obs_value = "≥ 63%"


bioavailability for CC(C)N(C)c1nc2cc(C(=O)O)ccc2nc1-c1cc2cc(F)ccc2o1 [Example 18] is ≥ 63%

Entry C[C@H]1COCCN1c1nc2cc(C(=O)O)ccc2nc1-c1ccc(F)cc1 [Example 105] — recorded bioavailability = > 74%

Recorded result, CN(c1nc2cc(C(=O)O)ccc2nc1-c1cc2ccccc2o1)C1CC1 [Example 15] , bioavailability: ≥ 63%

---

The entries below are paired with their reported IC50.
- TARGET OR SYSTEM: UniProt Q96RG2

Some molecules with recorded IC50:
[[record]]
smi = "O=C(O)c1ccc2nc(-c3ccc4[nH]ccc4c3)c(N3CCCCC3)nc2c1"
obs_value = "< 10 µM"

[[record]]
smi = "CC(C)N(C)c1nc2cc(C(=O)O)ccc2nc1-c1ccc2c(c1)nnn2C"
obs_value = "> 10 µM"

[[record]]
smi = "COc1ccc2oc(-c3nc4ccc(C(=O)O)cc4nc3N(C)C(C)C)cc2c1"
obs_value = "< 10 µM"


Would you kindly look at the next entry?
Entry CC(C)N(C)c1nc2cc(C(=O)O)ccc2nc1-c1ccc2cnn(C)c2c1 , UniProt Q96RG2 data, IC50 value: < 10 µM

---

- PROCEDURE TEXT: In vivo pharmacokinetics in the Sprague Dawley rat
- EXPERIMENTAL CONTEXT: blood, summary of Table 3
Form field: half-life (one value per entry).

As a guide, the following entries are already answered.
[[record]]
smi = "C[C@H]1CCCN1c1nc2cc(C(=O)O)ccc2nc1-c1cc2ccccc2o1"
obs_value = "≥ 3 h"

[[record]]
smi = "CC(C)N(C)c1nc2cc(C(=O)O)ccc2nc1-c1cc2cc(F)ccc2o1"
obs_value = "≥ 3 h"

[[record]]
smi = "CN(c1nc2cc(C(=O)O)ccc2nc1-c1cc2ccccc2o1)C1CC1"
obs_value = "≥ 3 h"


# context switch: different compound, same half-life
The reported half-life of the compound C[C@H]1COCCN1c1nc2cc(C(=O)O)ccc2nc1-c1ccc(F)cc1 was > 7 h
